Data origin, for the record: patent US11174268B2

TARGET SYSTEM: UniProt:P35498
METHOD SUMMARY: Sodium Influx Assay (Flux), NaV1.1;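 also: channels co-expressed with human β1 subunit and held open by modulators, cells exposed to compounds for one hour at room temperature, IC50 from percent inhibition of influx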
Format: cell-based
CONDITION NOTES: Trex HEK293 cells, ANG2 dye, inactivated state
Where a name gives a salt, the structure may show the parent alone.
EXPERIMENTAL ENDPOINT: IC50 (µM)

Study these solved cases before continuing.
1. Cc1c(NCc2ccccc2CN2CCC2)cc(F)c(S(=O)(=O)Nc2ccncn2)c1F [Example 310, 2,2,2-trifluoroacetate] : 20.3
2. O=S(=O)(Nc1ccon1)c1cc(Cl)c(NCc2ccccc2CN2CCC2)cc1F : 30
3. O=S(=O)(Nc1nccs1)c1cc(Cl)c(NC2(c3ccccc3F)CCC2)cc1F : 10.3
4. O=S(=O)(Nc1cscn1)c1c(F)cc(NCc2c(Cl)cccc2CN2CCC2)cc1F [Example 290, 2,2,2-trifluoroacetate] : 6.02
5. O=S(=O)(Nc1cnsc1)c1c(F)cc(NCc2c(F)cccc2CN2CCC2)cc1F : 20.4
6. C[C@H](Nc1cc(F)c(S(=O)(=O)Nc2cscn2)c(F)c1)c1cc(C(F)F)ccc1F : 3.08
7. O=S(=O)(Nc1cscn1)c1c(F)cc(NCc2c(CN3CCC3)cccc2C2CC2)cc1F [Example 211, 2,2,2-trifluoroacetate] : 3.38
8. O=S(=O)(Nc1cscn1)c1c(F)cc(NCc2c(F)cccc2CN2CC3(CCO3)C2)cc1F [Example 156, formate] : 24.8

[P] O=S(=O)(Nc1cccc(F)n1)c1cc(Cl)c(NCc2c(F)ccc(F)c2CN2CCC2)cc1F
[Q] O=S(=O)(Nc1ncns1)c1ccc(N[C@H]2CCc3ccccc32)c(Cl)c1
[R] CC[C@H](Nc1cc(F)c(S(=O)(=O)Nc2ncc(F)s2)cc1Cl)c1ccccc1
[S] CC[C@H](Nc1cc(F)c(S(=O)(=O)Nc2cccc(F)n2)cc1Cl)c1ccccc1F
[T] C[C@H](Nc1cc(F)c(S(=O)(=O)Nc2nccs2)cc1Cl)C1CCCCC1
Req: Order the entries by their reported IC50, beginning at the minimum. Provide the labels, sequenced as the question asks.
Resp: R, Q, S, T, P
(R: 0.794 µM, Q: 1.34 µM, S: 2.5 µM, T: 5.65 µM, P: 8.33 µM)

[A] C[C@H](Nc1cc(F)c(S(=O)(=O)Nc2cscn2)cc1Cl)c1cc(F)c(F)cc1F
[B] C[C@H](Nc1cc(F)c(S(=O)(=O)Nc2nccs2)cc1Cl)c1cc(F)ccc1F
Req: Please indicate which has the smaller reported IC50: A , or B . Label of pick, please.
Resp: B
(B: 0.388 µM, A: 6.84 µM)
